IC50 listing for selected molecules.
Tested on: Target C
Test: HiBiT protein abundance assay, Target C (K562 HiBiT knock-in cells)
Format: cell-based, human
Conditions: 24 hours treatment
Method: • Promega Nano-Glo HiBiT Lytic Detection System (cat #N3030) • Corning 384-well TC-treated microplates (cat #3570) • Synthego Engineered Cells Knock-In Clones Cells were maintained in IMDM with 10% FBS. […] To determine compound effects on protein abundance of each target in Table 6, the percent response for each respective cell line was calculated at each compound concentration as follows: […]

Guide cases for IC50, answers given:
[
  {
    "Smiles input": "Cn1cc2cc(-c3cc4cn(C5CCNCC5)nc4s3)c(F)cc2n1",
    "Observable": "IC50",
    "Measured result": "100 to 1000 nM"
  },
  {
    "Smiles input": "Cc1cn2nc(-n3cc4cc(C5CCNCC5)sc4n3)nc2c(C)n1",
    "Observable": "IC50",
    "Measured result": "1000 to 10000 nM"
  },
  {
    "Smiles input": "Cc1nc2c(F)cc(-n3cc4sc(C5CCNCC5)cc4n3)cc2s1",
    "Observable": "IC50",
    "Measured result": "1000 to 10000 nM"
  },
  {
    "Smiles input": "Cn1cc2cc(-c3nc4cn(C5CCNCC5)nc4s3)cc(F)c2n1",
    "Observable": "IC50",
    "Measured result": "100 to 1000 nM"
  },
  {
    "Smiles input": "Cc1nc2c(F)cc(-n3cc4sc(C5CCNCC5)cc4n3)cc2o1",
    "Observable": "IC50",
    "Measured result": "100 to 1000 nM"
  },
  {
    "Smiles input": "Cn1cc2cc(-c3cc4cn(C5CCNCC5)nc4s3)cc(F)c2n1",
    "Observable": "IC50",
    "Measured result": "< 100 nM"
  },
  {
    "Smiles input": "Cn1cc2cc(-c3cc4cn([C@H]5CCNC[C@H]5F)nc4s3)cc(F)c2n1",
    "Observable": "IC50",
    "Measured result": "100 to 1000 nM"
  }
]

Give the value of IC50 reported for the following: `Cn1cc2cc(-c3cc4cn(C5CCNCC5)nc4s3)ccc2n1`
100 to 1000 nM
